# Test system: SR leukemia
# TEST DETAILS: NCI-60 one-dose screen, 48 h
# MEASUREMENT CONDITIONS: 10 µM unless noted
The panel holds about 83,000 compounds, 20% with a hit somewhere; the sample as a whole holds those more often. The source made the active and inactive calls. Rule for the calls: active = growth percent below 10; inactive = the rest.
Give one outcome, nothing more. List: active, inactive

Worked examples follow.
| COMPOUND | STUDY SYSTEM | CLASS |
| --- | --- | --- |
| CCN(CC)CCn1c2ccc(OC)cc2c2sc3cc(O)ccc3c(=O)c21 | SR leukemia | active |
| CC(C)(C)c1ccc(S(=O)(=O)Oc2ccc(-c3sc4cc(OS(=O)(=O)c5ccc(C(C)(C)C)cc5)ccc4c3C(=O)c3ccc(OCCN4CCCCC4)cc3)cc2)cc1 | SR leukemia | inactive |

Per the assay record, what outcome was assigned to `COc1ccc2c(c1)CC[C@@H]1[C@@H]2CC[C@]2(C)c3c(cc(C#N)c4c3sc3ccccc34)C[C@@H]12` ? inactive

Per the assay record, what outcome was assigned to CCn1cc(C(=O)N/N=C/c2ccccc2)c(=O)c2cc(F)c(N3CCNC(C)C3)c(F)c21 (stereo not given) ? active

Per the assay record, what outcome was assigned to O=C(NC1CCC(Br)CC1)C1CCCC(S(=O)(=O)NC2CCCCC2)C1 (stereo not given) ? inactive

Per the assay record, what outcome was assigned to `O=C(Nc1cc(Cl)ccc1O)c1ccccc1Nc1ccnc(C(F)(F)F)c1` ? active

Per the assay record, what outcome was assigned to OC1(c2ccccc2)c2ccccc2N(c2ccccc2)c2ccc(Cl)cc21 (stereo not given) ? active

---

# System: SW-620 colon
# TEST DETAILS: NCI-60 one-dose screen, 48 h (100 = growth as untreated, 0 = no growth, -100 = all killed)
# MEASUREMENT CONDITIONS: 10 µM unless noted
About 83,000 compounds went through this panel and 20% of them were active in at least one assay; those are over-represented in the sample as a whole.
Catalogue of growth values
Answer format: numeric, % implied, no suffix.

| COMPOUND | STUDY SYSTEM | growth, % |
| --- | --- | --- |
| COC(=O)[C@]1(C)CCC[C@]2(C)[C@H]3C[C@@H]4[C@H]5[C@@H]6CC/C(=N\OCC/C(N)=N/O)[C@H]5[C@@]3(CC[C@H]21)CC4(C(C)C)O6 | SW-620 colon | 64.3 |
| CCOC(=O)CC1CSC(N/N=C/c2ccc(F)c(Br)c2)=N1 (centres undefined) | SW-620 colon | 102 |
| CN(C)Cc1ccc(NC(=O)c2cncc(C#Cc3cnc(N)c4ncccc34)c2)cc1C(F)(F)F | SW-620 colon | -78.7 |
| NC(=O)c1ccccc1OCC(=O)Nc1ccc(Cl)c(Cl)c1 | SW-620 colon | 102 |
| CNC(=O)NCC1OC(n2cnc3c(NC(=O)Nc4ccccc4)ncnc32)C2OC(=O)CC12 (centres undefined) | SW-620 colon | 106 |

growth for `Cc1[nH]c(C(=O)Nc2ccccc2OC2CCN(CCN3CCOCC3)CC2)c(Cl)c1Cl` is 99.7

growth for CCn1cc(C(=O)O)c(=O)c2cc(F)c(N3CCN(CC(=O)Nc4ccccc4)C(C)C3)c(F)c21 (centres undefined) is 105

growth for `COC(=O)c1ccc2c(c1)c1c(C)c3cnccc3c(C)c1n2C` is -6.12

growth for Cc1nc2sc(C(=O)Nc3ccccn3)c(N)c2cc1C(C)O (centres undefined) is 48.8

# credit: PubChem BioAssay (NCI)
